Test system: FMOC11 (patient-derived high-grade serous ovarian cancer cells)
protocol_notes: drug sensitivity score (DSS3, normalised partial AUC of % inhibition dose-response) (DSS (score)); higher = more sensitive (stronger inhibition of viability); extreme values may be limits of the assay
measurement_context: 72 h; library: FO5A; assay format: 2D, 384-well, CellTiter-Glo
Would you kindly list drug sensitivity score for each of these compounds?
Output spec: single numeric token, no unit.

Record `CCn1c(C(=O)N(C2CC2)C2CC2)cc2c3c(ncn3C)c(Nc3cc(C)n(C)n3)nc21` , field drug sensitivity score: 0.1

Record `CC(C)(C)Cn1c(N)nc2ccc(-c3[nH]c(C(C)(C)C)nc3-c3ccc(F)cc3)nc21` , field drug sensitivity score: 6.5

Record CC(O)(CS(=O)(=O)c1ccc(F)cc1)C(=O)Nc1ccc(C#N)c(C(F)(F)F)c1 (centres undefined) [Bicalutamide] , field drug sensitivity score: 0

Record N#CC(c1ccnc(OCc2ccc(CN3CCOCC3)cc2)n1)c1nc2ccccc2s1 (centres undefined) , field drug sensitivity score: 3.2
